measured.target: AxCT mask27 EGFR EH104 L058 version 1
measured.quantity: Percent cleavage (%)
Provide only the numeric value, understood in %.

Here is how some proteins turned out for Percent cleavage.
{"protein": "MMP-7 (protein) YSLFPNSPKWTSKVVTYRIVSYTRDLPHITVDRLVSKALNMWGKEIPLHFRKVVWGTADIMIGFARGAHGDSYPFDGPGNTLAHAFAPGTGLGGDAHFDEDERWTDGSSLGINFLYAATHELGHSLGMGHSSDPNAVMYPTYGNGDPQNFKLSQDDIKGIQKLYGKRSNSRKK", "measured.quantity": "Percent cleavage", "measurement.unit": "%", "observed.measurement": 0}
{"protein": "Cathepsin G (protein) IIGGRESRPHSRPYMAYLQIQSPAGQSRCGGFLVREDFVLTAAHCWGSNINVTLGAHNIQRRENTQQHITARRAIRHPQYNQRTIQNDIMLLQLSRRVRRNRNVNPVALPRAQEGLRPGTLCTVAGWGRVSMRRGTDTLREVQLRVQRDRQCLRIFGSYDPRRQICVGDRRERKAAFKGDSGGPLLCNNVAHGIVSYGKSSGVPPEVFTRVSSFLPWIRTTMRS", "measured.quantity": "Percent cleavage", "measurement.unit": "%", "observed.measurement": 0}
{"protein": "MMP-1 (protein) FVLTEGNPRWEQTHLTYRIENYTPDLPRADVDHAIEKAFQLWSNVTPLTFTKVSEGQADIMISFVRGDHRDNSPFDGPGGNLAHAFQPGPGIGGDAHFDEDERWTNNFREYNLHRVAAHELGHSLGLSHSTDIGALMYPSYTFSGDVQLAQDDIDGIQAIYGRSQNPVQPIGPQTPKACDSKLTFDAITTIRGEVMFFKDRFYMRTNPFYPEVELNFISVFWPQLPNGLEAAYEFADRDEVRFFKGNKYWAVQGQNVLHGYPKDIYSSFGFPRTVKHIDAALSEENTGKTYFFVANKYWRYDEYKRSMDPGYPKMIAHDFPGIGHKVDAVFMKDGFFYFFHGTRQYKFDPKTKRILTLQKANSWFNCRKN", "measured.quantity": "Percent cleavage", "measurement.unit": "%", "observed.measurement": 0}
{"protein": "Matriptase (protein) VVGGTDADEGEWPWQVSLHALGQGHICGASLISPNWLVSAAHCYIDDRGFRYSDPTQWTAFLGLHDQSQRSAPGVQERRLKRIISHPFFNDFTFDYDIALLELEKPAEYSSMVRPICLPDASHVFPAGKAIWVTGWGHTQYGGTGALILQKGEIRVINQTTCENLLPQQITPRMMCVGFLSGGVDSCQGDSGGPLSSVEADGRIFQAGVVSWGDGCAQRNKPGVYTRLPLFRDWIKENTGV", "measured.quantity": "Percent cleavage", "measurement.unit": "%", "observed.measurement": 23}
{"protein": "Neutrophil Elastase (protein) IVGGRRARPHAWPFMVSLQLRGGHFCGATLIAPNFVMSAAHCVANVNVRAVRVVLGAHNLSRREPTRQVFAVQRIFENGYDPVNLLNDIVILQLNGSATINANVQVAQLPAQGRRLGNGVQCLAMGWGLLGRNRGIASVLQELNVTVVTSLCRRSNVCTLVRGRQAGVCFGDSGSPLVCNGLIHGIASFVRGGCASGLYPDAFAPVAQFVNWIDSIIQ", "measured.quantity": "Percent cleavage", "measurement.unit": "%", "observed.measurement": 9}

Next up:
### Prompt What measured Percent cleavage goes with MMP-12 (protein) GPVWRKHYITYRINNYTPDMNREDVDYAIRKAFQVWSNVTPLKFSKINTGMADILVVFARGAHGDFHAFDGKGGILAHAFGPGSGIGGDAHFDEDEFWTTHSGGTNLFLTAVHEIGHSLGLGHSSDPKAVMFPTYKYVDINTFRLSADDIRGIQSLYGDPKENQRLPNPDNSEPALCDPNLSFDAVTTVGNKIFFFKDRFFWLKVSERPKTSVNLISSLWPTLPSGIEAAYEIEARNQVFLFKDDKYWLISNLRPEPNYPKSIHSFGFPNFVKKIDAAVFNPRFYRTYFFVDNQYWRYDERRQMMDPGYPKLITKNFQGIGPKIDAVFYSKNKYYYFFQGSNQFEYDFLLQRITKTLKSNSWFGC ?
### Response 9
